- Test system: Escherichia coli TOP10;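 note: peptides expressed intracellularly from a pBAD plasmid library in pooled LB shake-flask culture, induced with 0.3% L-arabinose, DNA abundance read by NGS, three biological replicates, DESeq2 with apeglm shrinkage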
- ASSAY_REMARKS: shrunken log2 fold change of peptide-encoding DNA abundance (4.5 h post-induction vs induction); higher = less antimicrobial activity (less host growth inhibition)
- RUN_CONDITIONS: time post-induction: 4.5 h; library: site-saturation at positions 5, 18, 19, 20
Outcome label depends on shrunken log2 fold change relative to -0.02: at/above gives Satisfied, below gives Not satisfied.

RESIDUES | CLASS_ASSIGNMENT
RRIRGRPPRLPRPRPRPQCLPRP | Satisfied
RRIRWRPPRLPRPRPRPQECPRP | Satisfied
RRIRLRPPRLPRPRPRPGECPRP | Satisfied
RRIRIRPPRLPRPRPRPEHGPRP | Not satisfied
RRIRNRPPRLPRPRPRPYMEPRP | Not satisfied
